Type: physicochemical
metric: melting point after storage (°C)

molecule	melting point after storage / °C
CC1CCC(C(C)C)C(OC(=O)C(C)O)C1 (centres unmarked) [Example 1, menthyl lactate]	43.9
CC1CCC(C(C)C)C(OC(=O)C(C)O)C1 (centres unmarked) [compound 5, menthyl lactate]	43.7
CC1CCC(C(C)C)C(OC(=O)C(C)O)C1 (centres unmarked) [Comparative Example 3, menthyl lactate]	36.7
CC1CCC(C(C)C)C(OC(=O)C(C)O)C1 (centres unmarked) [Comparative Example 4, menthyl lactate]	43.6
CC1CCC(C(C)C)C(OC(=O)C(C)O)C1 (centres unmarked) [compound 2, menthyl lactate]	39.3

----------
Assay type: physicochemical
experimental.context: after storage for 39 months in a closed glass jar
metric: acid number after storage (mg KOH/g)

In the examples that follow, each entry is paired with its recorded acid number after storage.
molecule	uom	acid number after storage
CC1CCC(C(C)C)C(OC(=O)C(C)O)C1 (centres unmarked) [Comparative Example 4, menthyl lactate]	mg KOH/g	0.27
CC1CCC(C(C)C)C(OC(=O)C(C)O)C1 (centres unmarked) [compound 5, menthyl lactate]	mg KOH/g	0.32
CC1CCC(C(C)C)C(OC(=O)C(C)O)C1 (centres unmarked) [compound 2, menthyl lactate]	mg KOH/g	32

P: CC1CCC(C(C)C)C(OC(=O)C(C)O)C1 (centres unmarked) [Example 1, menthyl lactate]
Q: CC1CCC(C(C)C)C(OC(=O)C(C)O)C1 (centres unmarked) [Comparative Example 3, menthyl lactate]
Lower value of acid number after storage belongs to which: P or Q ? Respond with the label that goes with your answer.
P

----------
Type: physicochemical
experimental.context: after storage for 39 months in a closed glass jar
metric: GC purity after storage (%)

molecule	endpoint.result
CC1CCC(C(C)C)C(OC(=O)C(C)O)C1 (stereo not shown) [Comparative Example 3, menthyl lactate]	92
CC1CCC(C(C)C)C(OC(=O)C(C)O)C1 (stereo not shown) [compound 5, menthyl lactate]	97
